Examples of compounds with documented pIC50 follow.
# system-under-test: Acetylcholinesterase (Homo sapiens)
# Sequence (P22303 32-614): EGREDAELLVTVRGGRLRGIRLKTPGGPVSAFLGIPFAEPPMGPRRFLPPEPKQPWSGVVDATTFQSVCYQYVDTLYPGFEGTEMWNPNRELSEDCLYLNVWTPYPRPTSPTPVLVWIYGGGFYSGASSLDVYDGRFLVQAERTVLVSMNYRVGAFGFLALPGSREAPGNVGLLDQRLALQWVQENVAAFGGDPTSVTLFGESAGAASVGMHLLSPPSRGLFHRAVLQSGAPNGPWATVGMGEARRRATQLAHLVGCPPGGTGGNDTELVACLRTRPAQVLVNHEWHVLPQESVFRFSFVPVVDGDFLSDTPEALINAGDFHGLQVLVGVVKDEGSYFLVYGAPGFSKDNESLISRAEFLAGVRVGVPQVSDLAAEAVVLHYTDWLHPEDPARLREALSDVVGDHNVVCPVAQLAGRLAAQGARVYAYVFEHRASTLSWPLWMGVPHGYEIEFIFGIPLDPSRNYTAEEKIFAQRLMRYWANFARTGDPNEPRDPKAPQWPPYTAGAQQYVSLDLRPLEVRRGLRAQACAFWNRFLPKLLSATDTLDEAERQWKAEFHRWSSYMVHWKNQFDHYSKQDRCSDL
# assay: Acetylcholinesterase Inhibition Assay (photometric method of Ellman et al.)
# Format: biochemical
# reply with the number alone; pIC50 is -log10 of concentration in mol/L

Consider the reported pIC50 for these compounds:
Cc1ccc2c(N)c3c(nc2c1)C1CCC3C1 (stereo not shown)    6.52
Nc1c2c(nc3cc(C(F)(F)F)ccc13)C1CCC2C1 (stereo not shown)    5.40

Asked: GET /values?readout=pIC50&item= Nc1c2c(nc3cc(F)ccc13)C1CCC2C1 (stereo not shown)
Given back: 7.10

----------
# system-under-test: Acetylcholinesterase (Homo sapiens)
# assay: Acetylcholinesterase Inhibition Assay (photometric method of Ellman et al.)
# Assay type: biochemical
# test-context: photometric method of Ellman et al.; read-out: Acetylcholinesterase Inhibition IC50
readout: pIC50
On this scale, pIC50 is minus log10 of a concentration expressed in M (mol/L).

Nc1c2c(nc3ccccc13)C1CCC2CC1    5.18
Cc1ccc2c(NCc3ccccc3)c3c(nc2c1)C1CCC3C1 (stereo not shown)    4.51
c1ccc(CNc2c3c(nc4ccccc24)C2CCC3CC2)cc1    4.11

Asked: Return reported pIC50; argument: Nc1c2c(nc3ccccc13)C1C=CC2CC1 (stereo not shown) [9-Amino-1,4-dihydro-1,4-ethanoacridine]
Given back: 5.85

Asked: Entry to check: C1=CC2CCC1c1nc3ccccc3c(NCc3ccccc3)c12 (stereo not shown)
Given back: 4.28
